Assay: Acute toxicity, determination of the lethal dose in the mouse
Conditions: in vivo, po, 1000 mg/kg, read-out: Percent toxicity (animals which die in 72 hours)
Assignment: determine reported mortality at 72 h for the given compounds.
Reply with the number, then its unit.

Qu. Which value of mortality at 72 h has been reported for C[C@@H]1C[C@@H](Cc2cccs2)NC1=O (relative stereo) [SR 42008] in the records?
Ans. 0%

Qu. Recorded mortality at 72 h of C[C@H]1C[C@@H](Cc2cccs2)NC1=O (relative stereo) [SR 42009] , please.
Ans. 40%

###

Test: Antagonism of convulsions and of mortality caused by bicucullin
Assay type: in vivo, mouse (CD Charles Rivers mice)
Conditions: mouse, oral, 60 min before bicucullin 0.8 mg/kg i.v.; probit method, confidence limits in parentheses, p < 0.05; read-out: Median effective dose (ED50) of the antagonism to the effects of bicucullin: Tonic convulsions
Procedure: The anticonvulsant effect of the products in the mouse was evaluated on a model of convulsions caused by electric shock, and on 2 models of convulsions induced by chemical agents: bicuculline and 3-mercaptopropionic acid. The batches were constituted by 10 CD Charles Rivers mice of weights comprised between 20 and 22 g. The products were administered orally, 60 minutes before the bicucullin (0.8 mg/kg, i.v.).
Labelling: ED50 reported below 90 mg/kg becomes 1; at or above becomes 0.

Qu. Report whether reported ED50 is lower than 90 mg/kg (strictly) for CC1CC(Cc2ccc(Cl)cc2)NC1=O (centres unmarked) [SR 42354]
Ans. 1

Qu. Does the reported ED50 of CC1CC(Cc2cccc(C(F)(F)F)c2)NC1=O (centres unmarked) [SR 42401] stay below 90 mg/kg?
Ans. 1

Qu. Take the compound CC1CC(Cc2ccccc2Cl)NC1=O (centres unmarked) [SR 41678] and say whether its ED50 is less than 90 mg/kg.
Ans. 1

Qu. Please indicate whether the reported ED50 of CC1(C)CC(Cc2ccc(Cl)cc2)NC1=O (centres unmarked) [SR 41873] is strictly below 90 mg/kg.
Ans. 0

Qu. Determine whether this compound shows ED50 lower than 90 mg/kg (ties excluded): CCC1(C)CC(Cc2ccccc2F)NC1=O (centres unmarked) [SR 42001]
Ans. 1

###

Kindly supply the reported ED50 values for the records listed here.
Assay: Antagonism of the convulsions induced by electric shock
Assay type: in vivo, mouse (CD1 Charles Rivers mice)
Conditions: mouse, oral, 60 min before electroshock; probit method, confidence limits in parentheses, p <= 0.05; read-out: Median effective dose (ED50) of electric shock antagonism

Qu. Bench note: what ED50 did CC1(C)CC(Cc2ccc(F)cc2)NC1=O (centres unmarked) [SR 41293] show?
Ans. 99 mg/kg

Qu. For the compound CC1CC(Cc2ccccc2F)NC1=O (centres unmarked) [SR 41881] , what ED50 is on record?
Ans. 92 mg/kg

Qu. Which ED50 value is on record for CC1(C)CC(Cc2cccc(C(F)(F)F)c2)NC1=O (centres unmarked) [SR 42725] ?
Ans. 34 mg/kg

Qu. Find the recorded ED50 belonging to CC(C)C1CC(Cc2ccc(Cl)cc2)NC1=O (centres unmarked) [SR 42726] and report it.
Ans. 72 mg/kg

Qu. Any idea what its ED50 is? The compound is CC1CC(Cc2cccc(Cl)c2)NC1=O (centres unmarked) [SR 42717]
Ans. 41 mg/kg

Qu. Given the compound CC1(C)CC(Cc2ccccc2F)NC1=O (centres unmarked) [SR 41680] , what is its reported ED50?
Ans. 51 mg/kg

Qu. Returns the measured ED50 for the input compound. Input: CC1(C)CC(Cc2ccc(Cl)cc2Cl)NC1=O (centres unmarked) [SR 42508]
Ans. 50 mg/kg

Qu. # get_value(readout='ED50', item= CC1CC(Cc2c(F)cccc2Cl)NC1=O (centres unmarked) [SR 42004] )
Ans. 34 mg/kg

Qu. For CCC1(C)CC(Cc2ccc(F)cc2)NC1=O (centres unmarked) [SR 42002] , what is its reported ED50?
Ans. 49 mg/kg

Qu. # query: ED50 of entry CC1(C)CC(Cc2ccc(Cl)cc2)NC1=O (centres unmarked) [SR 41873]
Ans. 62 mg/kg

Qu. I'd like to know its ED50. The compound in question is CC1CC(Cc2cccc(C(F)(F)F)c2)NC1=O (centres unmarked) [SR 42401]
Ans. 39 mg/kg

Qu. Give its ED50 value. Item: CC1CC(Cc2ccccc2Cl)NC1=O (centres unmarked) [SR 41678]
Ans. 44 mg/kg

Qu. Name the reported ED50 value associated with the compound CC1CC(Cc2ccccc2)NC1=O (centres unmarked) [SR 42010]
Ans. 105 mg/kg

Qu. Entry CC1CC(Cc2ccc(Cl)cc2)NC1=O (centres unmarked) [SR 42354] has what ED50?
Ans. 34 mg/kg
